The values you see were collected from patent US5739300A.

study system: E-selectin (Homo sapiens)
Construct: genetically engineered soluble fusion proteins from the extracytoplasmic domain of E- or P-selectin in each case; culture supernatant captured on anti-human IgG
Sequence (P16581 with tags, fused parts or gaps): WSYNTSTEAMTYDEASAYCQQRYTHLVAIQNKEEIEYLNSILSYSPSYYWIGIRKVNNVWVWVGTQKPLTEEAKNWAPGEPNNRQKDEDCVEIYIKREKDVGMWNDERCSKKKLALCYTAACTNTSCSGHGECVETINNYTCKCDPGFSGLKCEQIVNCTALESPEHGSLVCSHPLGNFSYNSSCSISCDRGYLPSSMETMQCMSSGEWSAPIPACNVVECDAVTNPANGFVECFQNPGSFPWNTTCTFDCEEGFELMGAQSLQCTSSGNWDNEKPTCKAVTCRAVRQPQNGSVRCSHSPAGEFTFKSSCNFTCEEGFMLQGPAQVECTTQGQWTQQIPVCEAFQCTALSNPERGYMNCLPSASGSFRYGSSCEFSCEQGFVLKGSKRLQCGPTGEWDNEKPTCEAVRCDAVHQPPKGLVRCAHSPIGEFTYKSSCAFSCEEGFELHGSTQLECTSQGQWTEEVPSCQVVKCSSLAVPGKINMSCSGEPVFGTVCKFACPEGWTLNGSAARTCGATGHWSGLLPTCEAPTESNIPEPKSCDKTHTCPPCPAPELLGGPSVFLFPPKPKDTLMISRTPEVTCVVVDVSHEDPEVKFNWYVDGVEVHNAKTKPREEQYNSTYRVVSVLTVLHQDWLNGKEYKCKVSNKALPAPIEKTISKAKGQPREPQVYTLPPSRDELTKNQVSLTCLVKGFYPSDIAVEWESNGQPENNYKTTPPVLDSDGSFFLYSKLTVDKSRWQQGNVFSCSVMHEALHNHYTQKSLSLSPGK
assay explanation: HL60 cell adhesion assay on recombinant, soluble E-selectin-IgG1 fusion protein
condition summary: read-out: IC 50 values for E-selectin
pIC50: −log10 of the molar value.
readout name: pIC50

1: C[C@@H]1O[C@@H](O[C@@H]2CCCC[C@H]2OC(=O)N2CCC(C(=O)O)(C(=O)O)CC2)[C@@H](O)[C@H](O)[C@@H]1O
2: C[C@@H]1O[C@@H](O[C@@H]2CCC[C@H]2OC(=O)N2CCC(C(=O)O)CC2)[C@@H](O)[C@H](O)[C@@H]1O
Between the entries labelled 1 and 2 , which has a larger pIC50 value on record? Lab log: write the label of the selected item as the result.
1
